# System: Haemophilus parasuis
# experiment: in vitro susceptibility, MIC by mini broth dilution
# Type: cell-based
measure: MIC values, Haemophilus parasuis (ug/mi)
Response body: numeric value in ug/mi, unit text excluded.

Take a look at these entries with their results.
compound	numeric-readout
CCCN1C[C@H](C)[C@@H](O)[C@](C)(O)[C@@H](CC)OC(=O)[C@H](C)[C@@H](O[C@H]2C[C@@](C)(OC)[C@](O)(CNc3ccc(Cl)cn3)[C@H](C)O2)[C@H](C)[C@@H](O[C@@H]2O[C@H](C)C[C@H](N(C)C)[C@H]2O)[C@](C)(O)C[C@H]1C	4
CC[C@H]1OC(=O)[C@H](C)[C@@H](O[C@H]2C[C@@](C)(OC)[C@](O)(CNCC3CCNCC3)[C@H](C)O2)[C@H](C)[C@@H](O[C@@H]2O[C@H](C)C[C@H](N(C)C)[C@H]2O)[C@](C)(O)C[C@@H](C)NC[C@H](C)[C@@H](O)[C@]1(C)O	8
CCCN1C[C@H](C)[C@@H](O)[C@](C)(O)[C@@H](CC)OC(=O)[C@H](C)[C@@H](O[C@H]2C[C@@](C)(OC)[C@](O)(CNc3cccc(Br)c3)[C@H](C)O2)[C@H](C)[C@@H](O[C@@H]2O[C@H](C)C[C@H](N(C)C)[C@H]2O)[C@](C)(O)C[C@H]1C	0.25
CCCN1C[C@H](C)[C@@H](O)[C@](C)(O)[C@@H](CC)OC(=O)[C@H](C)[C@@H](O[C@H]2C[C@@](C)(OC)[C@](O)(CNCc3cc(F)cc(F)c3)[C@H](C)O2)[C@H](C)[C@@H](O[C@@H]2O[C@H](C)C[C@H](N(C)C)[C@H]2O)[C@](C)(O)C[C@H]1C	0.25
CCCN1C[C@H](C)[C@@H](O)[C@](C)(O)[C@@H](CC)OC(=O)[C@H](C)[C@@H](O[C@H]2C[C@@](C)(OC)[C@](O)(CNc3ccc(C)c(C)c3)[C@H](C)O2)[C@H](C)[C@@H](O[C@@H]2O[C@H](C)C[C@H](N(C)C)[C@H]2O)[C@](C)(O)C[C@H]1C	2

(Q) Could you share which MIC values, Haemophilus parasuis value was measured for CCCN1CC(C)C(O)C(C)(O)C(CC)OC(=O)C(C)C(OC2CC(C)(OC)C(O)(CNc3n[nH]c(S)n3)C(C)O2)C(C)C(OC2OC(C)CC(N(C)C)C2O)C(C)(O)CC1C (centres unmarked) ?
(A) 0.5

(Q) Could you share which MIC values, Haemophilus parasuis value was measured for CCCNC[C@]1(O)[C@H](C)O[C@@H](O[C@H]2[C@H](C)[C@@H](O[C@@H]3O[C@H](C)C[C@H](N(C)C)[C@H]3O)[C@](C)(O)C[C@@H](C)NC[C@H](C)[C@@H](O)[C@](C)(O)[C@@H](CC)OC(=O)[C@@H]2C)C[C@@]1(C)OC ?
(A) 0.125

----------
# Test system: Actinobacillus pleuropneumoniae CVCC262
# experiment: in vitro susceptibility, MIC by mini broth dilution
# Assay type: cell-based
# condition-set: strain CVCC262
measure: MIC values, Actinobacillus pleuropneumoniae CVCC262 (ug/mi)
Response body: numeric value in ug/mi, unit text excluded.

molecule	numeric-readout
CCCN1CC(C)C(O)C(C)(O)C(CC)OC(=O)C(C)C(OC2CC(C)(OC)C(O)(CNC(CO)CO)C(C)O2)C(C)C(OC2OC(C)CC(N(C)C)C2O)C(C)(O)CC1C (centres unmarked)	64

Here's the next entry for you.
(Q) Could you share which MIC values, Actinobacillus pleuropneumoniae CVCC262 value was measured for C=CCN(CC=C)C[C@]1(O)[C@H](C)O[C@@H](O[C@H]2[C@H](C)[C@@H](O[C@@H]3O[C@H](C)C[C@H](N(C)C)[C@H]3O)[C@](C)(O)C[C@@H](C)N(CCC)C[C@H](C)[C@@H](O)[C@](C)(O)[C@@H](CC)OC(=O)[C@@H]2C)C[C@@]1(C)OC ?
(A) 2

----------
Reported MIC values, Pasteurella multocida CVCC399 values for a set of molecules
# Test system: Pasteurella multocida CVCC399
# experiment: in vitro susceptibility, MIC by mini broth dilution
# Type: cell-based
# condition-set: strain CVCC399
Response body: numeric value in ug/mi, unit text excluded.

molecule	system-name	numeric-readout
C#CCNC[C@]1(O)[C@H](C)O[C@@H](O[C@H]2[C@H](C)[C@@H](O[C@@H]3O[C@H](C)C[C@H](N(C)C)[C@H]3O)[C@](C)(O)C[C@@H](C)N(CCC)C[C@H](C)[C@@H](O)[C@](C)(O)[C@@H](CC)OC(=O)[C@@H]2C)C[C@@]1(C)OC [syzx-140]	Pasteurella multocida CVCC399	1

Here's the next entry for you.
(Q) Could you share which MIC values, Pasteurella multocida CVCC399 value was measured for CCCN1C[C@H](C)[C@@H](O)[C@](C)(O)[C@@H](CC)OC(=O)[C@H](C)[C@@H](O[C@H]2C[C@@](C)(OC)[C@](O)(CNCc3ccc(OC)cc3)[C@H](C)O2)[C@H](C)[C@@H](O[C@@H]2O[C@H](C)C[C@H](N(C)C)[C@H]2O)[C@](C)(O)C[C@H]1C [syzx-118] ?
(A) 0.25

----------
# System: Actinobacillus pleuropneumoniae CVCC262
# experiment: in vitro susceptibility, MIC by mini broth dilution
# Format: cell-based
# condition-set: strain CVCC262
# Method: in vitro tests of susceptibility of the compounds according to the present disclosure against bacterial strains commonly used in laboratories. […] The MICs (minimum inhibitory concentration) of the medicaments prepared according to the examples on the following bacterial strains were measured through mini broth dilution technique. […] The dilution ratio was recorded, and the bacterial liquid for the tests was diluted according to the recorded dilution ratio. […]
Lab note: anything with MIC values, Actinobacillus pleuropneumoniae CVCC262 below 0.5 ug/mi is marked MET; values at 0.5 ug/mi or higher are marked NOT MET.

Below, 5 compounds whose answers are already recorded.
compound	category
CCOCCCNCC1(O)C(C)OC(OC2C(C)C(=O)OC(CC)C(C)(O)C(O)C(C)CNC(C)CC(C)(O)C(OC3OC(C)CC(N(C)C)C3O)C2C)CC1(C)OC (centres unmarked)	NOT MET
CCCN1C[C@H](C)[C@@H](O)[C@](C)(O)[C@@H](CC)OC(=O)[C@H](C)[C@@H](O[C@H]2C[C@@](C)(OC)[C@](O)(CNC3CCCCCC3)[C@H](C)O2)[C@H](C)[C@@H](O[C@@H]2O[C@H](C)C[C@H](N(C)C)[C@H]2O)[C@](C)(O)C[C@H]1C	NOT MET
CCCN1C[C@H](C)[C@@H](O)[C@](C)(O)[C@@H](CC)OC(=O)[C@H](C)[C@@H](O[C@H]2C[C@@](C)(OC)[C@](O)(CNc3cccc(Cl)c3)[C@H](C)O2)[C@H](C)[C@@H](O[C@@H]2O[C@H](C)C[C@H](N(C)C)[C@H]2O)[C@](C)(O)C[C@H]1C	MET
CCCN1C[C@H](C)[C@@H](O)[C@](C)(O)[C@@H](CC)OC(=O)[C@H](C)[C@@H](O[C@H]2C[C@@](C)(OC)[C@](O)(CNc3cc(OC)cc(OC)c3)[C@H](C)O2)[C@H](C)[C@@H](O[C@@H]2O[C@H](C)C[C@H](N(C)C)[C@H]2O)[C@](C)(O)C[C@H]1C	MET
CCCN1C[C@H](C)[C@@H](O)[C@](C)(O)[C@@H](CC)OC(=O)[C@H](C)[C@@H](O[C@H]2C[C@@](C)(OC)[C@](O)(CNc3ccc(Cl)cn3)[C@H](C)O2)[C@H](C)[C@@H](O[C@@H]2O[C@H](C)C[C@H](N(C)C)[C@H]2O)[C@](C)(O)C[C@H]1C	NOT MET

(Q) Is the reported MIC values, Actinobacillus pleuropneumoniae CVCC262 for CCCN1C[C@H](C)[C@@H](O)[C@](C)(O)[C@@H](CC)OC(=O)[C@H](C)[C@@H](O[C@H]2C[C@@](C)(OC)[C@](O)(CNCC)[C@H](C)O2)[C@H](C)[C@@H](O[C@@H]2O[C@H](C)C[C@H](N(C)C)[C@H]2O)[C@](C)(O)C[C@H]1C strictly below 0.5 ug/mi?
(A) MET

(Q) Is the reported MIC values, Actinobacillus pleuropneumoniae CVCC262 for CC[C@H]1OC(=O)[C@H](C)[C@@H](O[C@H]2C[C@@](C)(OC)[C@](O)(CNCCCO)[C@H](C)O2)[C@H](C)[C@@H](O[C@@H]2O[C@H](C)C[C@H](N(C)C)[C@H]2O)[C@](C)(O)C[C@@H](C)NC[C@H](C)[C@@H](O)[C@]1(C)O strictly below 0.5 ug/mi?
(A) NOT MET

----------
Reported MIC values, Pasteurella multocida CVCC399 values for a set of compounds
# Tested on: Pasteurella multocida CVCC399
# experiment: in vitro susceptibility, MIC by mini broth dilution
# Format: cell-based
# condition-set: strain CVCC399
Response body: numeric value in ug/mi, unit text excluded.

(Q) Please tell me: MIC values, Pasteurella multocida CVCC399 of CCCCN(C)C[C@]1(O)[C@H](C)O[C@@H](O[C@H]2[C@H](C)[C@@H](O[C@@H]3O[C@H](C)C[C@H](N(C)C)[C@H]3O)[C@](C)(O)C[C@@H](C)N(CCC)C[C@H](C)[C@@H](O)[C@](C)(O)[C@@H](CC)OC(=O)[C@@H]2C)C[C@@]1(C)OC , system Pasteurella multocida CVCC399?
(A) 4

(Q) Please tell me: MIC values, Pasteurella multocida CVCC399 of CCCN1C[C@H](C)[C@@H](O)[C@](C)(O)[C@@H](CC)OC(=O)[C@H](C)[C@@H](O[C@H]2C[C@@](C)(OC)[C@](O)(CNCCc3c[nH]c4ccccc34)[C@H](C)O2)[C@H](C)[C@@H](O[C@@H]2O[C@H](C)C[C@H](N(C)C)[C@H]2O)[C@](C)(O)C[C@H]1C , system Pasteurella multocida CVCC399?
(A) 8

(Q) Please tell me: MIC values, Pasteurella multocida CVCC399 of CCCN1C[C@H](C)[C@@H](O)[C@](C)(O)[C@@H](CC)OC(=O)[C@H](C)[C@@H](O[C@H]2C[C@@](C)(OC)[C@](O)(CNCCCN3CCOCC3)[C@H](C)O2)[C@H](C)[C@@H](O[C@@H]2O[C@H](C)C[C@H](N(C)C)[C@H]2O)[C@](C)(O)C[C@H]1C [syzx-169] , system Pasteurella multocida CVCC399?
(A) 0.5

(Q) Please tell me: MIC values, Pasteurella multocida CVCC399 of CCCN1C[C@H](C)[C@@H](O)[C@](C)(O)[C@@H](CC)OC(=O)[C@H](C)[C@@H](O[C@H]2C[C@@](C)(OC)[C@](O)(CNCCOC)[C@H](C)O2)[C@H](C)[C@@H](O[C@@H]2O[C@H](C)C[C@H](N(C)C)[C@H]2O)[C@](C)(O)C[C@H]1C [syzx-125] , system Pasteurella multocida CVCC399?
(A) 2
